Provenance of the data: patent US20140193915

- assay_system: T1, pN-TALER IV-1-EE2 (GinL7C7-EE2-TALE13) (synthetic)
- T1 chain: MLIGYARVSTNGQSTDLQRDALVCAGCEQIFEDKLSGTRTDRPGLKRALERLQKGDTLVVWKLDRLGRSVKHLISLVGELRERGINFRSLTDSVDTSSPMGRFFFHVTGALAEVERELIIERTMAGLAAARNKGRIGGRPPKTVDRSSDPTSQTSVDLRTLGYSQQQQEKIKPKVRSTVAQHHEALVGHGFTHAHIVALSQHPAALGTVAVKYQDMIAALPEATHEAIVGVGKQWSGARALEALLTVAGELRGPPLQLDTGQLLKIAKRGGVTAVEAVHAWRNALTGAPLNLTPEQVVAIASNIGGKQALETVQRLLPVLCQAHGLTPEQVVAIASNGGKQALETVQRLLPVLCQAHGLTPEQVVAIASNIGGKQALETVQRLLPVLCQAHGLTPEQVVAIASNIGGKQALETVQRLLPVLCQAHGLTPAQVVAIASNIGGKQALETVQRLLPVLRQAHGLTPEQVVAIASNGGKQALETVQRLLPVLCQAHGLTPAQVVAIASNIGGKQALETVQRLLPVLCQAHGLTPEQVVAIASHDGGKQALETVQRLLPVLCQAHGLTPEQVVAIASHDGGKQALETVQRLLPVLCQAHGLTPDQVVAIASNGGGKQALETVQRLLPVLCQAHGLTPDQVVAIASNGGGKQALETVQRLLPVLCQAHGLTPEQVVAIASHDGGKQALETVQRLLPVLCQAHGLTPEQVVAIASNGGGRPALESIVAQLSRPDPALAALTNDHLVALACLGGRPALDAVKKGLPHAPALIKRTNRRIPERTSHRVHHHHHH
- experiment_summary: cell_activity; E. coli
- conditions_used: tags: 6-His
This section presents binders with their documented activity values.
API: value field is a number in score; no unit string.

Solved entries:
{"binder": "R47 (8bp) (dsDNA) DNA 1: AGAAGGTATTTATATCTCTGACCATGGTCACACTTATAAATACCTTCT DNA 2: AGAAGGTATTTATAAGTGTGACCATGGTCAGAGATATAAATACCTTCT", "activity, score": 1.5}
{"binder": "R45 (12bp) (dsDNA) DNA 1: AGAAGGTATTTATATCTCAAACCATGGTTTCACTTATAAATACCTTCT DNA 2: AGAAGGTATTTATAAGTGAAACCATGGTTTGAGATATAAATACCTTCT", "activity, score": 1}
{"binder": "R48 (dsDNA) DNA 1: AGAAGGTATTTATATCCAAAACTATAGTTTACAGTATAAATACCTTCT DNA 2: AGAAGGTATTTATACTGTAAACTATAGTTTTGGATATAAATACCTTCT", "activity, score": 1.5}

Please examine the following record next.
Q. Which value of activity has been reported for R46 (10bp) (dsDNA) DNA 1: AGAAGGTATTTATATCTCTAACCATGGTTACACTTATAAATACCTTCT DNA 2: AGAAGGTATTTATAAGTGTAACCATGGTTAGAGATATAAATACCTTCT in the records?
A. 1.5
